test protocol: qHTS of Nrf2 Activators: Hit Validation in Primary Assay; further: nearly all actives have a fitted effect of over 70% in size
measurement parameters: Nrf2/ARE reporter cell assay; activation; series mostly up to 46.1 µM
About 860 (78%) of roughly 1,100 compounds were called active. Roughly 19% stayed inconclusive and do not appear here. The call rests on the fitted dose curve; in most records, active means well fitted activation curve with a large enough effect; inconclusive means small, poorly fitted or top-dose-only effect; inactive means flat fitted curve, though single readings scatter. The set was probably picked from earlier hits. Some of the results follow.
Valid outcomes are listed here; reply with one: active, inactive

molecule	class name
O=C(Nc1ccc(Br)c(Cl)c1)c1ccco1	active

What did the test return for `Cc1cc(C(=O)Nc2cc(Br)ccc2O)on1` ?
active

What did the test return for `NC(=O)c1nc(Nc2ccccc2)sc1NC(=O)c1ccccc1Br` ?
active

What did the test return for `Cc1ccc(Cn2c(/C=C/c3ccco3)nc3ccccc32)cc1` ?
active

What did the test return for `Fc1ccc2nc(Nc3nc4c(F)cc(F)cc4s3)sc2c1` ?
active

What did the test return for `Cc1cccc(C)c1NC(=S)NC(=O)c1cccc(Cl)c1` ?
active

What did the test return for `Fc1cccc2sc(Nc3nc4ccccc4s3)nc12` ?
active

What did the test return for `Cc1sc2ncnc(Sc3nnnn3-c3ccccc3)c2c1C` ?
inactive

What did the test return for `Cc1sc2ncnc(SCc3ccco3)c2c1C` ?
active

What did the test return for `Cc1ccc(S(=O)(=O)CCSC(=N)N)cc1` ?
active

What did the test return for `NC(=O)c1nc(Nc2ccccc2)sc1NC(=O)c1c(F)cccc1F` ?
active

What did the test return for `O=C(c1ccc(S(=O)(=O)Cc2ccccc2Cl)c([N+](=O)[O-])c1)N1CCOCC1` ?
active
